- Tested on: gel-filtered platelets
- assay: In vitro inhibition of thrombin-induced gel-filtered platelet aggregation
- Assay type: cell-based
- details: Platelet; human gel-filtered platelets; agonist thrombin 50 μL of 1 unit/mL; read-out: Thrmb IC50 (Thrombin-induced aggregation of gel-filtered platelets)
value-type: pIC50
Notebook: values listed as pIC50 are -log10 of the concentration (mol/L).

Data request, read-out pIC50, for N=C(N)NCCC[C@H](NC(=O)[C@H](Cc1ccc(F)c(F)c1)NC(=O)Nc1ccc2c(CN3CCCC3)cn(Cc3ccc(F)cc3)c2c1)C(=O)NC(c1ccccc1)c1ccccc1 [Compound 60]
6.03

For NCCNC(=O)CNC(=O)[C@H](Cc1cccc(F)c1)NC(=O)Nc1ccc2c(CN3CCCC3)cn(Cc3c(Cl)cccc3Cl)c2c1 [Compound 147] then?
5.36

For C=CCOc1ccc(C[C@H](NC(=O)Nc2ccc3c(CN4CCCC4)cn(Cc4cccc(C)c4)c3c2)C(=O)N[C@@H](CCCNC(=N)N)C(=O)NCc2ccccc2)cc1 [Compound 34] then?
4.79

For CCCCCCCCNC(=O)[C@H](CCCNC(=N)N)NC(=O)[C@H](Cc1ccc(F)c(F)c1)NC(=O)Nc1ccc2c(CN3CCCCC3)cn(Cc3ccc(F)cc3)c2c1 [Compound 73] then?
5.62

---

- Test system: gel-filtered platelets
- assay: In vitro inhibition of thrombin-induced gel-filtered platelet aggregation
- Format: cell-based
- details: Platelet; human gel-filtered platelets; agonist thrombin 50 μL of 1 unit/mL; read-out: Thrmb IC50 (Thrombin-induced aggregation of gel-filtered platelets)
- Procedure: In Vitro Inhibition of Thrombin-Induced Gel-Filtered Platelet Aggregation Assay The percentage of platelet aggregation is calculated as an increase in light transmission of compound-treated platelet concentrate vs. control-treated platelet concentrate. Human blood is obtained from drug free, normal donors in tubes containing 0.13M sodium citrate. […] Aggregation is monitored in a BIODATA aggregometer for the 3 min following the addition of agonist (thrombin 50 μL of 1 unit/mL). […]
Give measured pIC50 for each item. Keep answers brief.
Notebook: values listed as pIC50 are -log10 of the concentration (mol/L).

Data request, read-out pIC50, for "COc1ccc(C[C@H](NC(=O)Nc2ccc3c(CN4CCCC4)cn(Cc4ccc(C)cc4)c3c2)C(=O)N[C@@H](CCCN=C(N)N)C(=O)NCc2ccccc2)cc1"
5.11

For "NCCNC(=O)[C@H](Cc1cscn1)NC(=O)[C@H](Cc1ccc(Cl)cc1)NC(=O)Nc1ccc2c(CN3CCCC3)cn(Cc3c(Cl)cccc3Cl)c2c1" then?
6.03

For "NCC[C@H](NC(=O)[C@H](Cc1ccc(F)c(F)c1)NC(=O)Nc1cccc2c1c(CN1CCCC1)cn2Cc1c(Cl)cccc1Cl)C(=O)NCc1ccccc1" then?
5.32

For "CN1CCN(C(=O)[C@H](CCCN)NC(=O)[C@H](Cc2ccc(F)c(F)c2)NC(=O)Nc2ccc3c(CN4CCCC4)cn(Cc4c(Cl)cccc4Cl)c3c2)CC1" then?
5.62

---

- System: gel-filtered platelets
- assay: In vitro inhibition of thrombin-induced gel-filtered platelet aggregation
- Type: cell-based
- details: Platelet; human gel-filtered platelets; agonist thrombin 50 μL of 1 unit/mL; read-out: Thrmb IC50 (Thrombin-induced aggregation of gel-filtered platelets)
- Experimental: In Vitro Inhibition of Thrombin-Induced Gel-Filtered Platelet Aggregation Assay The percentage of platelet aggregation is calculated as an increase in light transmission of compound-treated platelet concentrate vs. control-treated platelet concentrate. Human blood is obtained from drug free, normal donors in tubes containing 0.13M sodium citrate. […] Aggregation is monitored in a BIODATA aggregometer for the 3 min following the addition of agonist (thrombin 50 μL of 1 unit/mL). […]
pIC50: −log10 of the molar value.
Rule: pIC50 of 6 or more gives 1 (yes); anything lower gives 0 (no).

I'd appreciate it if you could say whether COc1ccc(C[C@H](NC(=O)Nc2ccc3c(c2)c(CN2CCSC2)cn3Cc2ccc(F)cc2)C(=O)N[C@@H](CCCNC(=N)N)C(=O)NCc2ccccc2)cc1 [Compound 163] has pIC50 at least equal to 6.
0 (no)

For COc1ccc(C[C@H](NC(=O)Nc2ccc3c(CNCCCN4CCCC4)cn(Cc4ccc(F)cc4)c3c2)C(=O)N[C@@H](CCCNC(=N)N)C(=O)NCc2ccccc2)cc1 [Compound 33] then?
0 (no)

For NCCCC[C@H](NC(=O)[C@H](Cc1ccc(F)c(F)c1)NC(=O)Nc1ccc2c(CN3CCCC3)cn(Cc3c(Cl)cccc3Cl)c2c1)C(=O)NCc1ccccc1 [Compound 70] then?
1 (yes)

For COc1ccc(C[C@H](NC(=O)Nc2ccc3c(CN4CCCC4)cn(Cc4ccccc4)c3c2)C(=O)N[C@@H](CCCNC(=N)N)C(=O)NCc2ccccc2)cc1 [Compound 22] then?
0 (no)

For N=C(N)NCCC[C@H](NC(=O)[C@H](Cc1ccc(F)c(F)c1)NC(=O)Nc1ccc2c(CN3CCCC3)cn(Cc3c(Cl)cccc3Cl)c2c1)C(=O)NCCCCCN [Compound 81] then?
1 (yes)

---

Give measured log10 IC50 for each item. Keep answers brief.
- assay-target: thrombin receptor (PAR-1) (Homo sapiens, UniProt P25116)
- Construct: CHRF membranes (Jones, Biochim. Biophys. Acta 1992, 1136, 272) are thawed from −70° C; endogenous in cells
- Sequence (P25116 22-425): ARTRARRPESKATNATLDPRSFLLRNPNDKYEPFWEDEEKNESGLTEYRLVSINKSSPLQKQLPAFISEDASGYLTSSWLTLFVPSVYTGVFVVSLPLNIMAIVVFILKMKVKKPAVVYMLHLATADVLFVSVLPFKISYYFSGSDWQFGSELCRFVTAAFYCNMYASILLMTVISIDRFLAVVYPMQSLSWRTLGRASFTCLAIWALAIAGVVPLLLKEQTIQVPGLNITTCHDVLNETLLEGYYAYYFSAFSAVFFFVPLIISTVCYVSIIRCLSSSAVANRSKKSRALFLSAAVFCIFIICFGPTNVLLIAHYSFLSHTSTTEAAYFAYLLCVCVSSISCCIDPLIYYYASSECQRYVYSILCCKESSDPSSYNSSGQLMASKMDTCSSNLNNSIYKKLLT
- assay: In vitro thrombin receptor binding assay (CHRF membranes)
- details: tritiated 721-40 radioligand, read-out: Bndg IC50 (Thrombin receptor binding)
In plain terms, each number is the log10 of measured IC50 in nM.

Data request, read-out log10 IC50, for "N=C(N)NCCC[C@H](NC(=O)[C@@H]1Cc2ccccc2CN1C(=O)Nc1ccc2c(CN3CCCC3)cn(Cc3ccc(F)cc3)c2c1)C(=O)NCc1ccccc1"
3.95

For "NCCC[C@H](NC(=O)[C@H](Cc1ccc(F)c(F)c1)NC(=O)Nc1ccc2c(CN3CCCC3)cn(Cc3c(Cl)cccc3Cl)c2c1)C(=O)NCc1cccs1" then?
2.93

For "CC(=O)NCCCC[C@H](NC(=O)[C@H](Cc1ccc(F)c(F)c1)NC(=O)Nc1ccc2c(CN3CCCC3)cn(Cc3c(Cl)cccc3Cl)c2c1)C(=O)NCc1ccccc1" then?
3.48

For "COc1ccc(C[C@H](NC(=O)Nc2ccc3c(CN4CCCC4)cn(Cc4cccc(C)c4)c3c2)C(=O)N[C@@H](CCCNC(=N)N)C(=O)NCC2CCCCC2)cc1" then?
4.02

For "CCN(Cc1ccncc1)C(=O)[C@H](CCCN)NC(=O)[C@H](Cc1ccc(F)c(F)c1)NC(=O)Nc1ccc2c(CN3CCCC3)cn(Cc3c(Cl)cccc3Cl)c2c1" then?
3.46

For "Nc1ccc(C[C@H](NC(=O)[C@H](Cc2ccc(F)c(F)c2)NC(=O)Nc2ccc3c(CN4CCCC4)cn(Cc4c(Cl)cccc4Cl)c3c2)C(=O)NCc2ccccc2)cc1" then?
3.52

For "NCC[C@H](NC(=O)[C@H](Cc1ccc(F)c(F)c1)NC(=O)Nc1cccc2c(CN3CCCC3)cn(Cc3c(Cl)cccc3Cl)c12)C(=O)NCc1ccccc1" then?
4.83

For "C=CCOc1ccc(C[C@H](NC(=O)Nc2ccc3c(CN4CCCC4)cn(Cc4cccc(C)c4)c3c2)C(=O)N[C@@H](CCCNC(=N)N)C(=O)NCc2ccccc2)cc1" then?
3.99

For "NCCNC(=O)CNC(=O)[C@H](Cc1cccc(F)c1)NC(=O)Nc1ccc2c(CN3CCCC3)cn(Cc3c(Cl)cccc3Cl)c2c1" then?
2.62

For "NCCNC(=O)[C@H](Cc1c[nH]cn1)NC(=O)[C@H](Cc1ccc(Cl)cc1)NC(=O)Nc1ccc2c(CN3CCCC3)cn(Cc3c(Cl)cccc3Cl)c2c1" then?
3.08

For "Cc1ccccc1Cn1c(Cl)c(CN2CCCC2)c2ccc(NC(=O)N[C@@H](Cc3ccc(F)c(F)c3)C(=O)N[C@@H](CCCNC(=N)N)C(=O)NCc3ccccc3)cc21" then?
3.83

For "N=C(N)NCCC[C@H](NC(=O)CCNC(=O)[C@H](Cc1ccc(F)c(F)c1)NC(=O)Nc1ccc2c(CN3CCCC3)cn(Cc3c(Cl)cccc3Cl)c2c1)C(=O)NCc1ccccc1" then?
3.41

For "NC(=O)NCCC[C@H](NC(=O)[C@H](Cc1cccc(F)c1)NC(=O)Nc1ccc2c(CN3CCCC3)cn(Cc3c(Cl)cccc3Cl)c2c1)C(=O)NCc1ccccc1" then?
2.79

For "NCCC[C@H](NC(=O)[C@H](Cc1ccc(F)c(F)c1)NC(=O)Nc1ccc2c(CN3CCCC3)cn(Cc3c(Cl)cccc3Cl)c2c1)C(=O)NCc1ccccc1" then?
3.04

For "NCCNC(=O)[C@@H](Cc1cccs1)NC(=O)[C@@H](Cc1ccc(Cl)cc1)NC(=O)c1ccc2c(CN3CCCC3)cn(Cc3c(Cl)cccc3Cl)c2c1" then?
4.00

For "NC[C@H](NC(=O)[C@H](Cc1ccc(Cl)cc1)NC(=O)Nc1ccc2c(CN3CCCC3)cn(Cc3c(Cl)cccc3Cl)c2c1)C(=O)NCc1ccccc1" then?
2.23

For "NCCNC(=O)[C@H](Cc1ccncc1)NC(=O)[C@H](Cc1ccc(Cl)cc1)NC(=O)Nc1ccc2c(CN3CCCC3)cn(Cc3c(Cl)cccc3Cl)c2c1" then?
2.95

For "N=C(N)NCCC[C@H](NC(=O)[C@H](Cc1ccc(Br)cc1)NC(=O)Nc1ccc2c(CN3CCCCC3)cn(Cc3c(Cl)cccc3Cl)c2c1)C(=O)NCc1ccccc1" then?
2.11

For "N=C(N)NCCC[C@H](NC(=O)Nc1ccc2c(CN3CCCC3)cn(Cc3c(Cl)cccc3Cl)c2c1)C(=O)N[C@@H](Cc1ccc(F)c(F)c1)C(=O)NCc1ccccc1" then?
3.77

For "COc1ccc(C[C@H](NC(=O)Nc2ccc3c(CN4CCCC4)cn(Cc4ccc(OC(F)(F)F)cc4)c3c2)C(=O)N[C@@H](CCCNC(=N)N)C(=O)NCC2CCCCC2)cc1" then?
3.40

For "COc1ccc(C[C@H](NC(=O)Nc2ccc3c(CN4CCOCC4)cn(Cc4ccc(F)cc4)c3c2)C(=O)N[C@@H](CCCN=C(N)N)C(=O)NCc2ccccc2)cc1" then?
3.59

For "Cc1ccccc1Cn1cc(CN2CCCC2)c2ccc(NC(=O)N[C@@H](Cc3ccc(F)c(F)c3)C(=O)N[C@@H](CCCNC(=N)N)C(=O)NCCc3ccccc3)cc21" then?
2.48

All figures here come from patent US7183252B2.
